src = ChEMBL document CHEMBL2321684

- protocol_details: Biodistribution in ICR mouse brain at 680 mg/kg, po after 0.5 hrs by HPLC analysis
- Assay type: ADME, organism-based
- Design: dose 680 mg/kg, route oral
- measurement_setup: read-out: Drug uptake
metric: concentration at 0.5 h (ng/mL)
Respond numerically; units are ng/mL and should not be typed.

Consider the compound CCCC[C@H](OC(=O)CN1CCN(C)CC1)c1ccccc1C(=O)O[C@H]1CO[C@H]2[C@@H]1OC[C@H]2OC(=O)c1ccccc1[C@H](CCCC)OC(=O)CN1CCN(C)CC1 and give its measured concentration at 0.5 h.
408

* * *

- protocol_details: Biodistribution in ICR mouse brain at 680 mg/kg, po after 1 hr by HPLC analysis
- Format: ADME, organism-based
- Set-up: dose 680 mg/kg, route oral
- measurement_setup: read-out: Drug uptake
metric: concentration at 1 h (ng/mL)
Respond numerically; units are ng/mL and should not be typed.

Consider the compound CCCC[C@H](OC(=O)CN1CCN(C)CC1)c1ccccc1C(=O)O[C@H]1CO[C@H]2[C@@H]1OC[C@H]2OC(=O)c1ccccc1[C@H](CCCC)OC(=O)CN1CCN(C)CC1 and give its measured concentration at 1 h.
260
